System: MOLT-4
Assay: Growth inhibition of human MOLT4 cells incubated for 48 hrs by sulforhodamine B assay
Type: functional, cell-based
Conditions: MOLT-4, 48 h, read-out: pTGI (converted)
Recorded measurements of TGI, one per entry
Just so you know, I need the unit written after the number.

Example entries and their recorded answers appear below.
O=C(Nc1cccc(-n2cc(-c3ccncc3)c(-c3cc(O)cc(Cl)c3)n2)c1)Nc1ccc(Cl)c(Cl)c1 = 5.13 µM
O=C(Nc1cccc(-n2cc(-c3ccncc3)c(-c3cc(O)cc(Cl)c3)n2)c1)c1ccc(N2CCOCC2)c(C(F)(F)F)c1 = 4.47 µM
O=C(Nc1cccc(-n2cc(-c3ccncc3)c(-c3cc(O)cc(Cl)c3)n2)c1)Nc1ccc(Cl)c(C(F)(F)F)c1 = 5.75 µM

Consider the additional molecule presented here.
# input Which TGI is reported with MOLT-4 for this entry: COc1cc(Cl)cc(-c2nn(-c3cccc(NC(=O)Nc4ccc(Cl)c(C(F)(F)F)c4)c3)cc2-c2ccncc2)c1 ?
# output 4.68 µM

====

System: DU-145
Assay: Growth inhibition of human DU145 cells assessed as cell growth at 100 uM incubated for 48 hrs by sulforhodamine B assay relative to control
Type: functional
Conditions: DU-145, 48 h, read-out: Activity
Recorded measurements of growth at 100 µM, one per entry
Lab book: enter the figure in %, no units written.

COc1cc(Cl)cc(-c2nn(-c3cccc(NC(=O)Nc4cccc(C(F)(F)F)c4)c3)cc2-c2ccncc2)c1 = 7
O=C(Nc1cccc(-n2cc(-c3ccncc3)c(-c3cc(O)cc(Cl)c3)n2)c1)Nc1ccc(Cl)c(C(F)(F)F)c1 = -68
COc1cc(Cl)cc(-c2nn(-c3cccc(NC(=O)Nc4cc(C(F)(F)F)cc(C(F)(F)F)c4)c3)cc2-c2ccncc2)c1 = -58

# input I have this molecule here, O=C(Nc1cccc(-n2cc(-c3ccncc3)c(-c3cc(O)cc(Cl)c3)n2)c1)c1ccc(N2CCOCC2)c(C(F)(F)F)c1 , and I need its recorded growth at 100 µM.
# output 13

====

Tested on: NCI-H460
Assay: Growth inhibition of human NCI-H460 cells incubated for 48 hrs by sulforhodamine B assay
Type: functional, cell-based
Conditions: NCI-H460, 48 h, read-out: TGI
Recorded measurements of TGI, one per entry
Lab book: enter the figure in µM, no units written.

COc1cc(Cl)cc(-c2nn(-c3cccc(NC(=O)Nc4cc(C(F)(F)F)cc(C(F)(F)F)c4)c3)cc2-c2ccncc2)c1 = 1.76

Consider the additional compound presented here.
# input Which TGI is reported with NCI-H460 for this entry: COc1cc(Cl)cc(-c2nn(-c3cccc(NC(=O)Nc4ccc(Cl)c(Cl)c4)c3)cc2-c2ccncc2)c1 ?
# output 13.9

====

System: HCT-15
Assay: Growth inhibition of human HCT15 cells incubated for 48 hrs by sulforhodamine B assay
Format: functional, cell-based
Conditions: HCT-15, 48 h, read-out: TGI
Recorded measurements of TGI, one per entry

Example entries and their recorded answers appear below.
COc1cc(Cl)cc(-c2nn(-c3cccc(NC(=O)Nc4cc(C(F)(F)F)cc(C(F)(F)F)c4)c3)cc2-c2ccncc2)c1 = 2.25 µM
COc1cc(Cl)cc(-c2nn(-c3cccc(NC(=O)Nc4ccc(Cl)c(Cl)c4)c3)cc2-c2ccncc2)c1 = 31.5 µM
O=C(Nc1cccc(-n2cc(-c3ccncc3)c(-c3cc(O)cc(Cl)c3)n2)c1)Nc1ccc(Cl)c(C(F)(F)F)c1 = 60.1 µM

# input I have this molecule here, O=C(Nc1cccc(-n2cc(-c3ccncc3)c(-c3cc(O)cc(Cl)c3)n2)c1)Nc1ccc(Cl)c(Cl)c1 , and I need its recorded TGI.
# output 80.4 µM

Every entry's value here was drawn from ChEMBL document CHEMBL4308841.
